# System: UACC-62 melanoma
# procedureText: NCI-60 one-dose screen, 48 h (100 = growth as untreated, 0 = no growth, -100 = all killed)
# testSettings: 10 µM
About 83,000 compounds went through this panel and 20% of them were active in at least one assay; those are over-represented in the sample as a whole.
Lab note: anything with growth at or over 50% counts as TRUE; the rest go in FALSE.

# count of solved cases: 5
Quick check: does CCN(CCCCCCN1CC(=O)N(CCCCCCN(CC)Cc2ccccc2OC)CC1=O)Cc1ccccc1OC have growth greater than or equal to 50%?
TRUE

Quick check: does c1ccc(CP(Cc2ccccc2)c2ccccc2)cc1 have growth greater than or equal to 50%?
TRUE

Quick check: does Clc1ccc(Nc2ccnc(NCCCNc3ccnc4cc(Cl)ccc34)n2)cc1 have growth greater than or equal to 50%?
FALSE

Quick check: does CC1CN(Cc2ccccc2)C(=O)NC1=O (configuration not stated) have growth greater than or equal to 50%?
TRUE

Quick check: does C#Cc1ccc(-n2c(/C=C/c3ccc(C(F)(F)F)cc3)nc3ncccc3c2=O)cc1 have growth greater than or equal to 50%?
FALSE

---
Quick check: does Cc1cc(Nc2ccc(Cl)cc2)nc(NCCCNc2ccnc3cc(Cl)ccc23)n1 have growth greater than or equal to 50%?
FALSE

Quick check: does O=C1NC(=O)c2ncccc21 have growth greater than or equal to 50%?
TRUE

Quick check: does O=C(N/N=C/c1ccccc1O)C(O)(c1ccccc1)c1ccccc1 have growth greater than or equal to 50%?
TRUE

Quick check: does CSc1cc(SC)ncn1 have growth greater than or equal to 50%?
TRUE

Quick check: does COc1ccc(-c2nc3ccccn3c2-c2nnc(-c3cc(OC)c(OC)c(OC)c3)o2)cc1 have growth greater than or equal to 50%?
TRUE

Quick check: does CN(C)c1ccc(Cc2ccc(N(C)C)cc2Cl)c(Cl)c1 have growth greater than or equal to 50%?
TRUE

Quick check: does CCCC1(CC(=O)O)OCCc2c1[nH]c1ccccc21 (configuration not stated) have growth greater than or equal to 50%?
TRUE

====

# Test system: SNB-75 CNS
# procedureText: NCI-60 one-dose screen, 48 h (100 = growth as untreated, 0 = no growth, -100 = all killed)
# testSettings: 10 µM
The panel holds about 83,000 compounds, 20% with a hit somewhere; the sample as a whole holds those more often.
valueType: growth (%)
// return numeric value only (unit: %, not printed)

Some solved entries appear below for comparison.
Entry under test: O=C(CCCCC[P+](c1ccccc1)(c1ccccc1)c1ccccc1)NC(COC(=O)C(Cl)Cl)(COC(=O)C(Cl)Cl)COC(=O)C(Cl)Cl . Its growth was 103

Entry under test: COc1cc(Cl)cc(-c2nn(-c3cccc(NC(=O)Nc4ccc(Cl)c(C(F)(F)F)c4)c3)cc2-c2ccncc2)c1 . Its growth was 14.5

Entry under test: C=C1c2c(C)nn(-c3ccc(OC)cc3)c2N(C)C23C[C@@H]1C1(C)c4c(C)nn(-c5ccc(OC)cc5)c4N(C)C(C)(C[C@H]12)C3 (stereo partly drawn) . Its growth was 59.6

Entry under test: C#Cc1ccc(-n2c(/C=C/c3ccc(O)cc3)nc3ncccc3c2=O)cc1 . Its growth was -1.11

Entry under test: COc1ccc2c(c1)O/C(=C\c1ccc([N+](=O)[O-])s1)C2=O . Its growth was 55.5

Entry under test: CN1CCCNc2c(c(=O)c2=O)NCCCN(C)CCCNc2c(c(=O)c2=O)NCCCN(C)CCCNc2c(c(=O)c2=O)NCCCN(C)CCCNc2c(c(=O)c2=O)NCCCN(C)CCCNc2c(c(=O)c2=O)NCCCN(C)CCCNc2c(c(=O)c2=O)NCCCN(C)CCCNc2c(c(=O)c2=O)NCCC1 . Its growth was 84.3

Entry under test: COc1ccc2nc3ccccc3c(NCCNCC(C)O)c2c1 (stereo not drawn) . Its growth was 28.1

---
Entry under test: Cc1cc2c(C)c3cc(C)c(N)cc3nc2cc1N . Its growth was 21.8

====

# Tested on: DU-145 prostate
# procedureText: NCI-60 one-dose screen, 48 h (100 = growth as untreated, 0 = no growth, -100 = all killed)
# testSettings: 10 µM
The panel holds about 83,000 compounds, 20% with a hit somewhere; the sample as a whole holds those more often.
Label 1 when growth is strictly below 30%; otherwise label 0.

# count of solved cases: 3
Lab note: confirm whether the reported growth for this compound is below 30%, equality not counting. compound: COc1ccc(-c2nn(-c3cccc(NC(=O)c4ccc(N5CCOCC5)c(C(F)(F)F)c4)c3)cc2-c2ccncc2)cc1Cl
0

Lab note: confirm whether the reported growth for this compound is below 30%, equality not counting. compound: Cn1c([N+](=O)[O-])cnc1/C=C1\Oc2ccccc2C1=O
1

Lab note: confirm whether the reported growth for this compound is below 30%, equality not counting. compound: O=C1OCC2=C1C(c1ccc(Cl)c(Cl)c1)c1cc3c(cc1N2CCO)OCCO3 (stereo not given)
1

---
Lab note: confirm whether the reported growth for this compound is below 30%, equality not counting. compound: O=C1Nc2ccccc2C1=NC1CCCCC1
0

Lab note: confirm whether the reported growth for this compound is below 30%, equality not counting. compound: Cc1ncc(-c2ccoc2)c(NC2CCCCCC2)n1
0

Lab note: confirm whether the reported growth for this compound is below 30%, equality not counting. compound: COc1cccc(-c2cc(-c3cccc(NS(C)(=O)=O)c3)nc(N)c2C#N)c1O
1

Lab note: confirm whether the reported growth for this compound is below 30%, equality not counting. compound: S=C1SCC(c2ccccc2)S1 (stereo not given)
0

Lab note: confirm whether the reported growth for this compound is below 30%, equality not counting. compound: COc1ccc(Nc2cc(C)nc(NCCCNc3ccnc4cc(Cl)ccc34)n2)cc1
1

Lab note: confirm whether the reported growth for this compound is below 30%, equality not counting. compound: Cc1nc2ccc(CN(C)c3ccc(C(=O)N[C@@H](CCC(=O)O)C(=O)O)s3)cc2c(=O)[nH]1
0

Lab note: confirm whether the reported growth for this compound is below 30%, equality not counting. compound: O=C(Nc1nc(-c2ccccc2Cl)cs1)c1cc(-c2ccc(Cl)cc2)nc2ccc(Cl)cc12
0

====

# Test system: SR leukemia
# procedureText: NCI-60 one-dose screen, 48 h
# testSettings: 10 µM
This is part of a sample that, as a whole, favours compounds with a hit. Of some 83,000 tested, about 20% had one in any assay. Activity calls are given as the source filed them. How the source made its calls: active means growth percent below 10; inactive means the rest.
Could you please pick one outcome from this set? 1.0 (active), 0.0 (inactive)

# count of solved cases: 2
Hi team, can someone confirm the assay call for O=C1OCC2=C1C(c1cccc(Cl)c1)c1cc3c(cc1N2CCO)CCC3 (stereo unspecified) ?
0.0

Hi team, can someone confirm the assay call for Nc1c(C(=O)Nc2cccc(F)c2)sc2nc3c(cc12)C(=O)CCC3 ?
0.0

Now consider a different molecule.
Hi team, can someone confirm the assay call for CCN(CC)CCSCCN(CC)CC ?
0.0

====

# Tested on: K-562 leukemia
# procedureText: NCI-60 one-dose screen, 48 h (100 = growth as untreated, 0 = no growth, -100 = all killed)
# testSettings: 10 µM
This is part of a sample that, as a whole, favours compounds with a hit. Of some 83,000 tested, about 20% had one in any assay.
Class definitions on growth: low value (below 10%), medium value (10% to below 80%), high value (80% or more)

# count of solved cases: 3
Quick check: band for CN(C)C=Nc1cc(Cl)ccc1Cl
high value

Quick check: band for N#Cc1cc(-c2cc3ccccc3o2)oc1N
low value

Quick check: band for N#Cc1ncc(-c2ccc(C(F)(F)F)cc2)c(NCc2cc(C(F)(F)F)cc(C(F)(F)F)c2)n1
medium value

Now consider a different molecule.
Quick check: band for O=C(/C(=C/c1ccccc1)CN1CCCCC1)c1ccccc1
low value

====

# Test system: T-47D breast
# procedureText: NCI-60 one-dose screen, 48 h
# testSettings: 10 µM
This is part of a sample that, as a whole, favours compounds with a hit. Of some 83,000 tested, about 20% had one in any assay. Active and inactive are the calls of the source. The calls were made as follows: active = growth percent below 10; inactive = the rest.
Could you please pick one outcome from this set? active, inactive

# count of solved cases: 3
Hi team, can someone confirm the assay call for C#Cc1ccc(-n2c(/C=C/c3ccc(C(F)(F)F)cc3)nc3ncccc3c2=O)cc1 ?
inactive

Hi team, can someone confirm the assay call for O=S(=O)(NCCCNc1nccc(-c2c(-c3ccc(F)cc3)nc3sccn23)n1)c1ccc(F)cc1 ?
active

Hi team, can someone confirm the assay call for Oc1[nH]c2ccc(Cl)cc2c1/C=c1/ccc2c(c1)N=C(c1cccs1)N=2 ?
inactive

---
Hi team, can someone confirm the assay call for CC(C)(C#N)Nc1ccccc1 ?
inactive

Hi team, can someone confirm the assay call for O=c1c2ccccc2nc(SCCN2CCCCC2)n1CCc1ccccc1 ?
inactive

Hi team, can someone confirm the assay call for COc1ccc(Oc2nc(NC3CCCC3)nc(Sc3ccc(OC)cc3)n2)cc1 ?
inactive

The origin of these recorded values is PubChem BioAssay (NCI).
